# System: EKVX NSCLC
# Procedure Text: NCI tumour cell line growth inhibition, 48 h
Entries annotated with measured TGI

Past entries and their recorded results:
>>> measurement("CC1=C(C(=O)Nc2ccc(F)c(Cl)c2)C(c2ccccc2Cl)NC(=S)N1 (centres undefined)")
"> 50 µM"
>>> measurement("O=S(=O)(/C=C/c1ccc(Cl)cc1Cl)Cc1ccccc1CS(=O)(=O)/C=C/c1ccc(Cl)cc1Cl")
"> 100 µM"
>>> measurement("CC(C)(C)NCc1cc(Nc2ccnc3cc(Cl)ccc23)cc(-c2ccc(Cl)cc2)c1O")
"14.8 µM"
>>> measurement("CC1Cc2c(Br)nc(N)nc2NC1=O (centres undefined)")
"> 100 µM"
>>> measurement("CC(=O)[CH-]C(=O)c1ccccc1.CC(=O)[CH-]C(=O)c1ccccc1.CC[O-].CC[O-].[Zr+4]")
"> 100 µM"

Entry "CCCN(CCC)C(=O)C1=Cc2ccc(-c3ccc(C(=O)N4CCCC4)cc3)cc2N=C(N)C1" , system EKVX NSCLC: what TGI was measured? 57.1 µM

Also "C1=Cc2ccccc2Nc2ccccc21" ? > 100 µM

Proceed to "Cc1ccc(S(=O)(=O)N2CCN(S(=O)(=O)c3ccc(C)cc3)Cc3ccccc3C2)cc1" > 100 µM

What do you have for O=[N+]([O-])C(Cl)C(Cl)C(Cl)=C(Cl)Cl (centres undefined) ? > 100 µM

* * *

# Test system: SK-MEL-2 melanoma
# Procedure Text: NCI tumour cell line growth inhibition, 48 h
Experimental Readout: TGI (µM)
Supply the numeric figure in µM, leaving out any unit text.

>>> measurement("O=C1C=CC2(O[C@H](c3ccccc3)[C@@H](c3ccccc3)O2)C(SC(=O)c2ccccc2)C1 (some centres not stated)")
3.51

What measured TGI goes with COc1cccc(C2c3cc4c(cc3OC(C)(O)C2C)OCO4)c1O (configuration not stated) ? 65.3

What would you report for "CCC[CH2][Sn]1([CH2]CCC)[O]C(=O)c2cc(I)cc(I)c2[O]1" ? 1.94

* * *

# System: SW-620 colon
# Procedure Text: NCI tumour cell line growth inhibition, 48 h
Experimental Readout: GI50

Known GI50 results, listed for orientation:
>>> measurement("CCOc1cccc(/C=N/NC(=O)c2ccc(Nc3ccnc(C(F)(F)F)c3)cc2)c1O")
"2010 nM"
>>> measurement("Cn1cncc1[C@@](N)(c1ccc(Cl)cc1)c1ccc2c(c1)c(-c1cccc(Cl)c1)cc(=O)n2C")
"1820 nM"
>>> measurement("CC1=C[C@H]2c3c(c(O)c(O)c4oc5c(C)cccc5c(=O)c34)[C@H](c3cc(O)c(O)c4oc5c(C)cccc5c(=O)c34)[C@H]2C(C)(C)C1")
"1930 nM"

Which value of GI50 has been reported for "O=C(Nc1ccccc1O)c1cccc(NC2=C(Cl)C(=O)N(Cc3ccccc3)C2=O)c1" in the records? 2120 nM

* * *

# reported TGI; entries follow
# System: NCI-H460 lung
# Procedure Text: NCI tumour cell line growth inhibition, 48 h

Observe how each entry below is paired with its result.
>>> measurement("N#C/C(=C\\c1ccc(-c2ccc(Cl)cc2)o1)C(=O)Nc1ncc(Cc2ccc(Cl)cc2)s1")
"2.46 µM"
>>> measurement("O=c1cccccc1NCCOCCNc1cccccc1=O")
"> 100 µM"

Which TGI reading was recorded for the compound CC1(c2ccc(F)cc2)CC(c2ccc(F)cc2)=C(C#N)C(=C(C#N)C#N)N1 (stereo not given) ? 38.2 µM

One more compound: "CC(=O)[CH-]C(=O)c1ccccc1.CC(=O)[CH-]C(=O)c1ccccc1.CC[O-].CC[O-].[Zr+4]" > 100 µM

Please give the result for "Cc1cc(O)cc2oc(=O)c3c(O)cc(O)cc3c12" too. 30.8 µM

Could you do the same for "CCOc1c(Br)cc(C2C(C(=O)OC)=CN(C)C=C2C(=O)OC)cc1OC" , please? > 100 µM

Then what about the compound "O=c1cc(-c2ccccc2)[nH]c2cc(F)c(F)cc12" ? > 100 µM

What about "O=C(O)CN1CCNCCN(CP(=O)(O)O)CC1" ? > 100 µM

What about "Cn1cncc1[C@@](N)(c1ccc(Cl)cc1)c1ccc2c(c1)c(-c1cccc(Cl)c1)cc(=O)n2C" ? 11.9 µM

One more compound: COc1cc(/C=C2/C(=O)N(C(=O)OC(C)C)C(Cc3cc(OC)c(OC)c(C)c3OC)C(=O)N2Cc2ccccc2)c(OC)c(C)c1OC (stereo not given) > 100 µM

Next compound up: "CN(C)c1ccc(/C=C2/SC(=S)NC2=O)cc1" > 100 µM

* * *

# System: IGROV1 ovarian
# Procedure Text: NCI tumour cell line growth inhibition, 48 h
Measured GI50 values are reported for all entries that follow.

>>> measurement("CCOc1c(Br)cc(C2C(C(=O)OC)=CN(C)C=C2C(=O)OC)cc1OC")
"> 100000 nM"
>>> measurement("COC(=O)Nc1nc2ccc(Oc3ccc(NC(=O)Nc4cccc(C(=O)O)c4)cc3)cc2[nH]1")
"12700 nM"
>>> measurement("CC(C)(C)NC(C1=CC(C)(C)c2ccccc2C1=O)c1ccccc1 (stereo not given)")
"1520 nM"

Query for IGROV1 ovarian: what GI50 does the record show for "Cn1ccnc1C(=O)/C=C/c1ccc(C(=O)Nc2ccc(Cl)cc2)cc1" ? 855 nM

Follow-up entry: "CCC[CH2][Sn]1([CH2]CCC)[O]C(=O)c2cc(I)cc(I)c2[O]1" 1810 nM

Please give the result for CCN(CC)CCCC(C)Nc1cnc(C(=O)Nc2ccc(Cl)c3cccnc23)cn1 (stereo not given) too. 1620 nM

Entry to check: "CC(=O)[CH-]C(=O)c1ccccc1.CC(=O)[CH-]C(=O)c1ccccc1.CC[O-].CC[O-].[Zr+4]" > 100000 nM

Now this one: "CCOc1cccc(/C=N/NC(=O)c2ccc(Nc3ccnc(C(F)(F)F)c3)cc2)c1O" 2320 nM

Consider next the compound "COc1ccc2c(c1)c(-c1ccc(-c3cn(S(=O)(=O)c4ccccc4)c4ccc(OC)cc34)s1)cn2S(=O)(=O)c1ccccc1" in the same way. > 100000 nM

Similarly, "C[n+]1c(/C=C\c2ccc(Cl)cc2)ccc2ccccc21" ? 27200 nM

* * *

# TGI listing for each entry below
# Tested on: SF-539 CNS
# Procedure Text: NCI tumour cell line growth inhibition, 48 h
Express your answer in µM, writing the number without its unit.

>>> measurement("CCOc1cccc(/C=N/NC(=O)c2ccc(Nc3ccnc(C(F)(F)F)c3)cc2)c1O")
11.6

For the next question, use this compound.
Identify the measured TGI of "CC1=NN(c2nc(N)nc(CCl)n2)CC1" for SF-539 CNS. 57.9

* * *

# Tested on: HOP-62 NSCLC
# Procedure Text: NCI tumour cell line growth inhibition, 48 h
Experimental Readout: TGI

Some entries whose results are on file:
>>> measurement("Cn1c2ccccc2c(=S)c2ccccc21")
"> 100 µM"
>>> measurement("CCC[CH2][Sn]1([CH2]CCC)[O]C(=O)c2cc(I)cc(I)c2[O]1")
"4.12 µM"
>>> measurement("Cc1cc(C)nc(NS(=O)(=O)c2ccc(Nc3nncc(=O)n3N)cc2)n1")
"34.7 µM"

# query: TGI | item CC1=NN(C(=O)CC(=O)Nc2ccccc2C)C(=O)C1N=Nc1ccc(C(=O)O)cc1 (stereo unspecified) | system: HOP-62 NSCLC > 100 µM

Next molecule up: Cc1[nH]c2ccccc2c1C1Cc2ccccc2N1C(=O)/C=C/C=C/c1ccccc1 (stereo unspecified) > 100 µM

Next entry: "COC(=O)CCC(=O)CC(=O)C1=NS(=O)(=O)c2nc(S(N)(=O)=O)c(Cl)cc2N1" > 100 µM

Quick one: "C#CCOC(=O)c1ccccc1O" > 100 µM

* * *

# Tested on: NCI-H226 lung
# Procedure Text: NCI tumour cell line growth inhibition, 48 h; in the data active means GI50 below about 0.43 µM; inactive means the rest
Bench note: report the call from t for active, f for inactive

These solved cases illustrate the format of a correct answer.
>>> group("CCN(CC)CCCC(C)Nc1cnc(C(=O)Nc2ccc(Cl)c3cccnc23)cn1 (stereo not given)")
"f"
>>> group("CCC(C)(C)C(=O)O[C@H]1C[C@@H](C)C=C2C=C[C@H](C)[C@H](CC[C@@H]3C[C@@H](O)CC(=O)O3)[C@H]21")
"f"
>>> group("CCCCCCCCCCCCCC(=O)O[C@H]1CC[C@H](NC(=O)[C@H](OC)[C@H](O)[C@@H](O)[C@H](O)/C=C/C(C)C)C(=O)NC1")
"t"

Hi, sorry to bother you, what did the test record for "CC1=C[C@H]2c3c(c(O)c(O)c4oc5c(C)cccc5c(=O)c34)[C@H](c3cc(O)c(O)c4oc5c(C)cccc5c(=O)c34)[C@H]2C(C)(C)C1" ? f

Now consider "N#C/C(=C\c1ccc(-c2ccc(Cl)cc2)o1)C(=O)Nc1ncc(Cc2ccc(Cl)cc2)s1" . f

Source: PubChem BioAssay (NCI)
